The measured values listed here are drawn from patent EP0745595A1.

- Tested on: CHENOPODIUM ALBUM, L.
- Experimental details: Preemergence herbicidal evaluation, CHEAL (Lambsquarters, Common)
- Format: in vivo
- Cond: Rate 0.125 kg/ha, four to five weeks after treatment
Readout label: CHEAL rating
# print the numeric value only

Item CCOC(=O)Cn1c(=O)n(C)c(=O)n(-c2cc(Oc3ccc(C(F)(F)F)cc3Cl)ccc2[N+](=O)[O-])c1=O was tested on CHENOPODIUM ALBUM, L.; the reported CHEAL rating is 9.0

Item COC(=O)Cn1c(=O)n(C)c(=O)n(-c2cc(Oc3c(F)cc(C(F)(F)F)cc3Cl)ccc2F)c1=O was tested on CHENOPODIUM ALBUM, L.; the reported CHEAL rating is 9.0

Item CCOC(=O)Cn1c(=O)n(CC(=O)OC)c(=O)n(-c2cc(Oc3ccc(C(F)(F)F)cc3Cl)ccc2[N+](=O)[O-])c1=O was tested on CHENOPODIUM ALBUM, L.; the reported CHEAL rating is 9.0
